# target-or-test-system: D2 receptors (Chlorocebus aethiops, UniProt P52702)
# Sequence (P52702 whole entry): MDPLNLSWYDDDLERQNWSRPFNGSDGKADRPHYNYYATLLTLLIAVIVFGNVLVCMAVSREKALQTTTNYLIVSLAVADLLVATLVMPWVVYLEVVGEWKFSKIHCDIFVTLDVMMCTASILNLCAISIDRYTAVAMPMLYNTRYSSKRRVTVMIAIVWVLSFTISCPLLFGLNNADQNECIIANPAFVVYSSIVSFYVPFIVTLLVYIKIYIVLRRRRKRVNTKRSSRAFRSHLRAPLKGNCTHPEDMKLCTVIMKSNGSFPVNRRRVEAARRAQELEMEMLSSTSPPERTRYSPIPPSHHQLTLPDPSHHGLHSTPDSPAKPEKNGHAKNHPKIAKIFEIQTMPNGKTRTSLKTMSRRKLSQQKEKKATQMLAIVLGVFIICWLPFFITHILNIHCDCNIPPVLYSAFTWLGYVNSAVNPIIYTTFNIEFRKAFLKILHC
# assay-text: Assay for D2 receptor binding activity (3H-YM 09151-2 displacement)
# run-parameters: COS cell pellets with recombinant receptor; 0.5 nM 3H-YM 09151-2; test compounds are acid addition salts
Overview of reported Ki across a group of compounds:

Check out these entries, answers already filled in.
molecule_smiles=c1cnc(N2CCN(CCCCNC3=Nc4ccccc4OC3)CC2)nc1 value_observed="> 1000 nM"
molecule_smiles=c1cnc(N2CCN(CCCNC3=Nc4ccccc4SC3)CC2)nc1 value_observed="> 100 nM"

Now for a further compound.
Exercise: Form field: reported Ki of Fc1cnc(N2CCN(CCNC3=Nc4ccccc4OC3)CC2)nc1
Solution: > 100 nM
